Molecular target: Platelet-derived growth factor receptor beta (Homo sapiens)
Sequence (P09619 whole entry): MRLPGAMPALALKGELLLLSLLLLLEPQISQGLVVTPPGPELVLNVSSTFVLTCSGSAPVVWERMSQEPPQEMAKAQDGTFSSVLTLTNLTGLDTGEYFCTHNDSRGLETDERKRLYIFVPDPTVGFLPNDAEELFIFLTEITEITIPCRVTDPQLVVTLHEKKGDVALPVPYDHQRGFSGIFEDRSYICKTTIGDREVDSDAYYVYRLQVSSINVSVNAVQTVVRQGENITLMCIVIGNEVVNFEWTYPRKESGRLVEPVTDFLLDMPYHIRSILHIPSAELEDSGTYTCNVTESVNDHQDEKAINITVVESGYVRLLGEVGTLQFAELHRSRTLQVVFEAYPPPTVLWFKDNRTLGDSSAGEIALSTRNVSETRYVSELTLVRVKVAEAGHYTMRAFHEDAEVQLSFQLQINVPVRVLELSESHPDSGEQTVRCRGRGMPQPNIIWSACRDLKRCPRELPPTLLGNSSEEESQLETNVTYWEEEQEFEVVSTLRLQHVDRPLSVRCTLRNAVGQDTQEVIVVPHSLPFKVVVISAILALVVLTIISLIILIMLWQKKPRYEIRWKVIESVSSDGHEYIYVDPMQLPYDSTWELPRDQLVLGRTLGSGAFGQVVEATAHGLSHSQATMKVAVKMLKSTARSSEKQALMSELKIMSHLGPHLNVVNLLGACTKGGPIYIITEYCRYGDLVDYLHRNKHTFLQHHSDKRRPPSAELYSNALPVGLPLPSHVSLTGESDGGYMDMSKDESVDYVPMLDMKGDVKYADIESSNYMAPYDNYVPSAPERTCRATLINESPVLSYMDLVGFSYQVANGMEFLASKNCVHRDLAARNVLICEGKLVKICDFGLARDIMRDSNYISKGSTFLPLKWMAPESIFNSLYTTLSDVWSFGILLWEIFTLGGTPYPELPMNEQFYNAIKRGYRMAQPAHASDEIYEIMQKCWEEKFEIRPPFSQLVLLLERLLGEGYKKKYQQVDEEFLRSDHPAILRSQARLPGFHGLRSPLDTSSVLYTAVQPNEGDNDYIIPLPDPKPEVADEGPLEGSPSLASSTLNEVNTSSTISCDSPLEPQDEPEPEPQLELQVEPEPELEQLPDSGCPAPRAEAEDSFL
Measured property: Kd

Incoming: Query (molecule): COCCOc1cc2ncnc(N3CCN(c4ncc(Cc5ccccc5)cn4)CC3)c2cc1OCCOC ; field requested: Kd
Outgoing: 8 nM

----------
Tested on: P815
Assay: Cytotoxicity in mouse P815 cells expressing KIT D814Y mutant assessed as reduction in cell viability incubated for 48 hrs by MTT assay
Format: functional, cell-based
Conditions: P815, 48 h
Kindly supply the reported IC50 values for the records listed here.
Write the value in µM as a bare number.

Incoming: Query (compound): COc1cc2c(N3CCN(C(=O)Nc4ccc(OC(C)C)cc4)CC3)ncnc2cc1OCCCN1CCCCC1 ; field requested: IC50
Outgoing: 0.6

Incoming: Item: COCCOc1cc2ncnc(N3CCN(c4ncc(Cc5ccccc5)cn4)CC3)c2cc1OCCOC
Outgoing: 0.182
